test system: U937 Cells; assay: Cytotoxicity assay (MTS/MTT), U937 cells; type: cell-based, human; conditions: U937 Cells; read-out: Inhibitory Concentration 50 for Cell Growth (IC50)
measure: pIC50
Convention used: pIC50 is expressed as -log10 of the molar concentration.

## Task Returns the measured pIC50 for the input compound. Input: COc1cccc2c1C(=O)c1c(O)c3c(c(O)c1C2=O)C[C@@](O)(C(=O)CO)C[C@@H]3O[C@H]1C[C@H](n2cccc2)[C@@H](O)[C@H](C)O1 [Example 1, 3′-pyrrolyl epirubicin]
## Result 7.92

----------
test system: HL-60 cells; assay: Cytotoxicity assay (MTS/MTT), HL-60 cells; format: cell-based, human; settings: HL-60; read-out: Inhibitory Concentration 50 for Cell Growth (IC50)
measure: IC50 (µM)
Answer with a number only, understood to be in µM.

## Task Please give the measured IC50 for this molecule: COc1cccc2c1C(=O)c1c(O)c3c(c(O)c1C2=O)C[C@@](O)(C(=O)CO)C[C@@H]3O[C@H]1C[C@H](n2cccc2)[C@@H](O)[C@H](C)O1 [Example 1, 3′-pyrrolyl epirubicin]
## Result 0.357

----------
test system: DU-145; assay: Cytotoxicity assay (MTS/MTT), DU-145 cells; format: cell-based, human; conditions: read-out: Inhibitory Concentration 50 for Cell Growth (IC50)
measure: pIC50
Scale explanation: pIC50 corresponds to minus log10 of a concentration expressed in moles per litre.

## Task Recorded pIC50 for COc1cccc2c1C(=O)c1c(O)c3c(c(O)c1C2=O)C[C@@](O)(C(=O)CO)C[C@@H]3O[C@H]1C[C@H](n2cccc2)[C@@H](O)[C@H](C)O1 [Example 1, 3′-pyrrolyl epirubicin] , please?
## Result 8.07

----------
system: THP-1; experiment: Cytotoxicity assay (MTS/MTT), THP-1 cells; type: cell-based, human; conditions: read-out: Inhibitory Concentration 50 for Cell Growth (IC50)
measure: IC50 (nM)
Kindly answer with a numeric value in nM, unit omitted.

## Task Endpoint output: IC50 of COc1cccc2c1C(=O)c1c(O)c3c(c(O)c1C2=O)C[C@@](O)(C(=O)CO)C[C@@H]3O[C@H]1C[C@H](n2cccc2)[C@@H](O)[C@H](C)O1 [Example 1, 3′-pyrrolyl epirubicin] . Value?
## Result 9
